- system.tested: F508delCFTR (Homo sapiens, UniProt P13569, DEL508-508)
- Construct: expressed in transfected cells; host or cells: CFBE41o- human lung-derived epithelial cells (CFBE4lo-F508delCFTR-HRP), doxycycline-inducible
- Sequence (P13569 with tags, fused parts or gaps DEL508-508): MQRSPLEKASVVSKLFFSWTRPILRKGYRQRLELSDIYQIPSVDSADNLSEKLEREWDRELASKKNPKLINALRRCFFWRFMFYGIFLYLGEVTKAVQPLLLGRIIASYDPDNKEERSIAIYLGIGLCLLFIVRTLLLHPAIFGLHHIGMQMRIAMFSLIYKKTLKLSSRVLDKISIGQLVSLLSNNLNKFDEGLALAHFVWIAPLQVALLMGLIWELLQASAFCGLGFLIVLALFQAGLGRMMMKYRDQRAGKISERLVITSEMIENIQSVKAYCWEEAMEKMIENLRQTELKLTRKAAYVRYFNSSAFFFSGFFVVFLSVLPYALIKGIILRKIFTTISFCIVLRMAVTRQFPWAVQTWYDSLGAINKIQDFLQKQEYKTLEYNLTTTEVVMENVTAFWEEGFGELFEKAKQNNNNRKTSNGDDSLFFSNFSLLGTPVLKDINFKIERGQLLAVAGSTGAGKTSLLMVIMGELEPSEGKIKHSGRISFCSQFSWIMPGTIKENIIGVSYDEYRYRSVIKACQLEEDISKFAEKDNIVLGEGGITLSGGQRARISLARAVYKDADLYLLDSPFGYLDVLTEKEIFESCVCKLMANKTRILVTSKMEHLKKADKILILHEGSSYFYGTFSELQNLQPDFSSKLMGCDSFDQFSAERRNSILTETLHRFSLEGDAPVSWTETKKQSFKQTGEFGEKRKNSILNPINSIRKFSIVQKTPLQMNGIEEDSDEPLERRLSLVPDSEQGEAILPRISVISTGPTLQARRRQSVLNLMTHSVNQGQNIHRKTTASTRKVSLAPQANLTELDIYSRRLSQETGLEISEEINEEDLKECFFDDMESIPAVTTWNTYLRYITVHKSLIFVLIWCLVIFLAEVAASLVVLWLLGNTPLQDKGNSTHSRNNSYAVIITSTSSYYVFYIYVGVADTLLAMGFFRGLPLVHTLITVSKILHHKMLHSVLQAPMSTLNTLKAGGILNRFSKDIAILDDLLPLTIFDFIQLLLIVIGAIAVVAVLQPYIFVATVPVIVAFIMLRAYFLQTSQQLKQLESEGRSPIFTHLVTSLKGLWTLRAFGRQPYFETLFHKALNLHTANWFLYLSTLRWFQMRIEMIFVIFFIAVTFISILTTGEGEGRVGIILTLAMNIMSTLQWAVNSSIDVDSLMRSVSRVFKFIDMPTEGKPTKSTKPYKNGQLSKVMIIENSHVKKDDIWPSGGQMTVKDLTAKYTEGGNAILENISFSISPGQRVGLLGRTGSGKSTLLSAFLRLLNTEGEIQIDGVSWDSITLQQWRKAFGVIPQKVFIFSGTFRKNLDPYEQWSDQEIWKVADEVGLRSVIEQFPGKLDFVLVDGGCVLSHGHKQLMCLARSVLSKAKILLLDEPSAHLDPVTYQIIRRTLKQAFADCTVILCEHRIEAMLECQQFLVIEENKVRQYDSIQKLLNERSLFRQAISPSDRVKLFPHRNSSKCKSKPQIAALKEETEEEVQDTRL
- protocol.text: Cell Surface Expression-Horse Radish Peroxidase (CSE-HRP) Assay;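 also: co-corrector and positive control are both the same reference corrector at 2 µM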
- Type: cell-based
- run.parameters: with co-corrector (2 μM of 3-[(2R,4R)-4-({[1-(2,2-difluoro-1,3-benzodioxol-5-yl)cyclopropyl]carbonyl}amino)-7-methoxy-3,4-dihydro-2H-chromen-2-yl]benzoic acid); maximum at any tested concentration, normalized to on-plate positive control
measurement.label: Maximum % activity (with co-corrector)

Below: 8 molecules and their reported Maximum % activity (with co-corrector).
COc1ccc(OC(F)(F)F)cc1CN[C@H]1[C@H](C(C)(C)C)[C@@H](C(=O)O)N(C(=O)OC(C)C)[C@H]1c1ccccc1 :: +++ (≥350)
COc1nc2ccccc2cc1CN[C@H]1[C@H](C(C)(C)C)[C@@H](C(=O)O)N(C(=O)OC(C)C)[C@H]1c1ccccc1C :: +++ (≥350)
COc1ccc(C(C)(C)C)cc1CN[C@H]1[C@H](C(C)(C)C)[C@@H](C(=O)O)N(C(=O)C2CCCCC2C(F)(F)F)[C@H]1c1ccccc1 (some centres unmarked) :: +++ (≥350)
COc1ccc(C(C)(C)C)cc1CN[C@H]1[C@H](C(C)(C)C)[C@@H](C(=O)O)N(C(=O)C2CCC(C(F)(F)F)CC2)[C@H]1c1ccccc1 (some centres unmarked) :: +++ (≥350)
COc1ncc(C2CCC2)cc1CN[C@H]1[C@H](C(C)(C)C)[C@@H](C(=O)O)N(C(=O)C2CCCC(F)(F)C2)[C@H]1c1ccccc1 (some centres unmarked) :: +++ (≥350)
COc1ccc(C(C)(C)C)cc1CN[C@H]1[C@H](C(C)(C)C)[C@@H](C(=O)O)N(C(=O)C(C)Oc2cccc(C)c2C)[C@H]1c1ccccc1 (some centres unmarked) :: +++ (≥350)
Cc1cc(C(F)(F)F)cc(N[C@@H]2[C@@H](C(C)(C)C)[C@H](C(=O)NS(=O)(=O)N(C)C)N(C(=O)C3CCCCC3)[C@@H]2c2ccccc2)n1 (racemic) :: ++ (≥150 and <350)
CO[C@@H](C(=O)N1[C@H](C(=O)O)[C@@H](C(C)(C)C)[C@H](Nc2cc(C(F)(F)F)cc(C)n2)[C@@H]1c1ccccc1)c1ccccc1 :: ++ (≥150 and <350)

Data request: Give the reported Maximum % activity (with co-corrector) for this molecule. COCCn1cc(C(F)(F)F)cc(CN[C@H]2[C@H](C(C)(C)C)[C@@H](C(=O)O)N(C(=O)C3CCCCC3)[C@H]2c2ccccc2)c1=O (racemic)
Data returned: ++ (≥150 and <350)

Data request: Give the reported Maximum % activity (with co-corrector) for this molecule. COc1ccc(C(C)(C)C)cc1CN[C@H]1[C@H](C(C)(C)C)[C@@H](C(=O)O)N(C(=O)[C@@H]2[C@@H](C(F)(F)F)[C@@H]3CC[C@H]2O3)[C@H]1c1ccccc1 (relative stereo)
Data returned: +++ (≥350)

Data request: Give the reported Maximum % activity (with co-corrector) for this molecule. COc1cc(Cl)ccc1CN[C@@H]1[C@@H](C(C)(C)C)[C@H](C(=O)O)N(C(=O)C2CCCCC2)[C@@H]1c1ccccc1 (racemic)
Data returned: +++ (≥350)

Data request: Give the reported Maximum % activity (with co-corrector) for this molecule. COc1ncc(C2CCC2)cc1CN[C@H]1[C@H](C(C)(C)C)[C@@H](C(=O)O)N(C(=O)[C@@H]2CCCCO2)[C@H]1c1ccccc1C
Data returned: +++ (≥350)

Data request: Give the reported Maximum % activity (with co-corrector) for this molecule. COc1cc(C(F)(F)F)ccc1CN[C@@H]1[C@@H](C(C)(C)C)[C@H](C(=O)O)N(C(=O)C2CCCCC2)[C@@H]1c1ccccc1 (racemic)
Data returned: +++ (≥350)

Data request: Give the reported Maximum % activity (with co-corrector) for this molecule. COc1cccc(OC)c1CN[C@H]1[C@H](C(C)(C)C)[C@@H](C(=O)O)N(C(=O)C2CCCCC2)[C@H]1c1ccccc1
Data returned: +++ (≥350)

Data request: Give the reported Maximum % activity (with co-corrector) for this molecule. COc1ccc(C(C)(C)C)cc1CN[C@H]1[C@H](C(C)(C)C)[C@@H](C(=O)O)N(C(=O)[C@@H]2CCC[C@H](O)C2)[C@H]1c1ccccc1
Data returned: +++ (≥350)

Data request: Give the reported Maximum % activity (with co-corrector) for this molecule. COc1ncc(-c2ccc(F)cc2F)cc1CN[C@H]1[C@H](C(C)(C)C)[C@@H](C(=O)O)N(C(=O)C2CCCCC2)[C@H]1c1cccnc1N(C)C
Data returned: +++ (≥350)

Data request: Give the reported Maximum % activity (with co-corrector) for this molecule. COc1ccc(C(C)(C)C)cc1CN[C@H]1[C@H](C(C)(C)C)[C@@H](C(=O)O)N(C(=O)[C@@H](C)[C@H]2CCCCO2)[C@H]1c1ccccc1 (relative stereo)
Data returned: +++ (≥350)

Data request: Give the reported Maximum % activity (with co-corrector) for this molecule. COc1ccc(C(C)(C)C)nc1CN[C@H]1[C@H](C(C)(C)C)[C@@H](C(=O)O)N(C(=O)C2CCCCC2)[C@H]1c1ccccc1
Data returned: +++ (≥350)

Data request: Give the reported Maximum % activity (with co-corrector) for this molecule. COc1ccc(C(C)(C)C)cc1CN[C@H]1[C@H](C(C)(C)C)[C@@H](C(=O)O)N(C(=O)OC(C)C)[C@H]1c1ccccc1C
Data returned: +++ (≥350)

Data request: Give the reported Maximum % activity (with co-corrector) for this molecule. COc1ncc(-c2ccccc2F)cc1CN[C@H]1[C@H](C(C)(C)C)[C@@H](C(=O)O)N(C(=O)C2CCCCC2)[C@H]1c1ccccc1F
Data returned: +++ (≥350)

Data request: Give the reported Maximum % activity (with co-corrector) for this molecule. COc1ccc(C(C)(C)C)cc1CN[C@H]1[C@H](C(C)(C)C)[C@@H](C(=O)O)N(C(=O)C23CC(F)(C2)C3)[C@H]1c1ccccc1
Data returned: +++ (≥350)

Data request: Give the reported Maximum % activity (with co-corrector) for this molecule. COc1ccc(C(C)(C)C)cc1CN[C@H]1[C@H](C(C)(C)C)[C@@H](C(=O)O)N(C(=O)C2CCC(F)(F)C2)[C@H]1c1ccccc1 (some centres unmarked)
Data returned: +++ (≥350)

Data request: Give the reported Maximum % activity (with co-corrector) for this molecule. COc1ccc(CN[C@@H]2[C@@H](C(C)(C)C)[C@H](C(=O)O)N(C(=O)C3CCCCC3)[C@@H]2c2ccccc2)c(OC)c1Cl (racemic)
Data returned: ++ (≥150 and <350)

Cited source for all entries: patent US20180099931A1
